organism: Cavia porcellus; assay: Binding affinity against digitalis receptor was determined relative to digitoxigenin
Some compounds, each annotated with its measured Relative potency.
A bare number is all that is needed in reply.

*Q* // returns reported Relative potency for input `C[C@]12CC[C@H](O)C[C@H]1CC[C@@H]1[C@@H]2CC[C@]2(C)[C@@H](C3=CC(=O)OC3)CC[C@]12O`
*A* 1

*Q* Now consider COC(=O)/C=C/[C@H]1CC[C@]2(O)[C@@H]3CCC4C[C@@H](O)CC[C@]4(C)[C@H]3CC[C@]12C (some centres undefined) .
*A* 0.29

*Q* Now consider C[C@]12CC[C@H](O)CC1CC[C@@H]1[C@@H]2CC[C@]2(C)[C@@H](/C=C/C#N)CC[C@]12O (some centres undefined) .
*A* 0.69
